The following compounds each carry a recorded MIC for Acinetobacter baumannii ATCC 19606.
The reply should read as a number followed by its unit.

# compound, observed result
measured = [
    ("CC[C@H](C)[C@H](NC(=O)[C@@H](NC(=O)[C@H](CO)NC(=O)[C@H](C)NC(=O)[C@@H](NC(=O)[C@H](CCCCN)NC(=O)[C@H](CCCN=C(N)N)NC(=O)[C@@H](NC(=O)[C@@H](NC(=O)[C@H](CC(=O)O)NC(=O)[C@H](Cc1ccccc1)NC(=O)[C@H](CC(C)C)NC(=O)CN)C(C)C)[C@@H](C)CC)C(C)C)C(C)C)C(=O)NCC(=O)NCC(=O)N[C@@H](CC(C)C)C(=O)O [GLFDVIRKVASVIGGL]", "19.5 µM"),
]

Turning to the following compound.
Sample CC[C@H](C)[C@@H]1NC(=O)CNC(=O)[C@H](CCCN=C(N)N)NC(=O)[C@H](Cc2ccc(O)cc2)NC(=O)[C@@H]2CSSC[C@H](NC1=O)C(=O)N[C@@H](Cc1ccc(O)cc1)C(=O)N[C@@H](CCCN=C(N)N)C(=O)N[C@@H](C)C(=O)N[C@H](C(=O)N[C@@H](CCCN=C(N)N)C(=O)O)CSSC[C@H](NC(=O)[C@H](Cc1c[nH]c3ccccc13)NC(=O)[C@@H](N)CCCCN)C(=O)N[C@@H](Cc1ccccc1)C(=O)N[C@@H](CCCN=C(N)N)C(=O)N[C@@H](C(C)C)C(=O)N2 [KWCFRVCYRGICYRACR] , system: Acinetobacter baumannii ATCC 19606. Its MIC is 0.115 µM

* * *

tested on: Staphylococcus epidermidis
assay metric: MIC (µM)
Give bare numbers, in µM.

// input: 4 compounds below; output: MIC for each
1. CC[C@H](C)[C@H](NC(=O)[C@H](Cc1c[nH]c2ccccc12)NC(=O)[C@H](Cc1c[nH]c2ccccc12)NC(=O)[C@H](CCCCN)NC(=O)[C@H](Cc1c[nH]c2ccccc12)NC(=O)[C@H](CCCN=C(N)N)NC(=O)[C@H](CCCN=C(N)N)NC(=O)[C@H](CCCCN)NC(=O)[C@@H](N)CC(C)C)C(=O)O
2. CC[C@H](C)[C@H](NC(=O)[C@@H](NC(=O)CNC(=O)[C@H](C)NC(=O)[C@@H](NC(=O)[C@H](CCCCN)NC(=O)[C@H](CCCCN)NC(=O)[C@H](CC(C)C)NC(=O)[C@H](Cc1ccccc1)NC(=O)[C@H](CC(=O)O)NC(=O)[C@@H](NC(=O)[C@H](Cc1ccccc1)NC(=O)CN)C(C)C)C(C)C)[C@@H](C)O)C(=O)N[C@@H](C)C(=O)N[C@@H](CC(N)=O)C(=O)N[C@H](C(=O)N[C@H](C(=O)N[C@H](C(N)=O)[C@@H](C)O)C(C)C)C(C)C
3. CC[C@H](C)[C@H](NC(=O)[C@H](CCCN=C(N)N)NC(=O)[C@H](Cc1c[nH]c2ccccc12)NC(=O)[C@H](CCCN=C(N)N)NC(=O)[C@@H](N)C(C)C)C(=O)N[C@@H](CCCN=C(N)N)C(=O)N[C@H](C(=O)N[C@@H](C)C(=O)N[C@H](C(=O)N[C@H](C(=O)N[C@@H](CCCN=C(N)N)C(=O)N[C@@H](C)C(=O)O)[C@@H](C)CC)C(C)C)C(C)C
4. CC[C@H](C)[C@H](NC(=O)[C@H](CCCCN)NC(=O)[C@@H](N)Cc1c[nH]c2ccccc12)C(=O)N[C@H](C(=O)N[C@@H](Cc1ccccc1)C(=O)N[C@@H](Cc1c[nH]c2ccccc12)C(=O)N[C@@H](Cc1c[nH]c2ccccc12)C(=O)N[C@@H](CCCN=C(N)N)C(=O)N[C@@H](CCCN=C(N)N)C(N)=O)C(C)C

(A)
[1.2, 26.6, 1.07, 0.182]
